Reference for the values: the RepoRT retention time repository

Assay: RP, Waters ACQUITY UPLC BEH C18, 50 × 2.1 mm, 1.7 µm, 40 °C, 0.6 mL/min, estimated dead time 0.18 min; A: water + 0.1% formic acid, pH 3; B: acetonitrile + 0.1% formic acid, pH 3; gradient (min/%B) 0/5 7/100 8/100
Details: stereoisomer not certain
Use LC retention time to assign classes; range list: lower bin (below 3 min), middle bin (3 min to below 5 min), upper bin (5 min or more)

Some solved cases for reference:
COMPOUND	ASSIGNED CATEGORY
CC1(C)CCC[C@]2(CO)C1CC[C@@]13C[C@@H](CCC12)[C@@](O)(COC(=O)/C=C/c1ccc(O)c(O)c1)C3 (stereo not given in full)	middle bin
Oc1ccc(C2c3c(O)cc(O)cc3C3C(c4ccc(O)cc4)c4c(O)cc(O)cc4C23)cc1 (stereo not given)	lower bin
COc1cc(CC[N+](C)(C)C)c2ccc3cc4c(c5c3c2c1OC5)OCO4	lower bin
C=CCc1ccc(O)c(-c2ccc(O)c(CC=C)c2)c1 [3',5-bis(prop-2-en-1-yl)-[1,1'-biphenyl]-2,4'-diol]	middle bin
COc1ccc(-c2oc3cc(OC)c(OC)c(O)c3c(=O)c2OC)cc1O	lower bin

**Q:** Input CC1CCC2(C)C(CCC(O)C2(C)O)C1(C)CC(O)c1ccoc1 (stereo not given) ; output its category
**A:** upper bin

**Q:** And what about the compound COc1cc(CC(COC(C)=O)C(COC(=O)/C=C/c2ccc(O)c(O)c2)Cc2ccc(O)c(OC)c2)ccc1O (stereo not given) ?
**A:** lower bin

**Q:** Another compound to look at: C/C(=C/CC[C@H](C)[C@@H]1CC[C@]2(C)C3=CCC4C(C)(C)C(=O)CC[C@]4(C)C3CC[C@@]12C)C(=O)O (stereo not given in full)
**A:** upper bin

---

Experiment: RP, Waters ACQUITY UPLC BEH C18, 50 × 2.1 mm, 1.7 µm, 40 °C, 0.6 mL/min, estimated dead time 0.18 min; A: water + 0.1% formic acid, pH 3; B: acetonitrile + 0.1% formic acid, pH 3; gradient (min/%B) 0/5 7/100 8/100
Conditions: stereoisomer not certain
MEASURE: LC retention time (min)
The response must be a number in min with no trailing unit.

> print(dat)
                                   compound            measure  quantitative.readout
1  CCCCCCCCCCC[C@@H]1CCC[C@@H](C)N1 [(2R,6R)-2-methyl-6-undecylpiperidine]  LC retention time                  4.03
2  C=C(C(=O)C(O)C(C)C1C(OC(C)=O)CC2(C)C3CC(O)C4C(C)C(=O)C=CC45CC35CCC12C)C(C)CO (stereo not drawn)  LC retention time                  3.41
3  COc1c(O)c(O)c(-c2c(O)c(O)c(OC)c3oc4ccccc4c23)c2c1oc1ccccc12  LC retention time                  3.58
4  C/C=C1/CN(C)[C@@H]2Cc3c([nH]c4ccccc34)C(=O)C[C@H]1C2C(=O)OC (stereo partly drawn)  LC retention time                   1.4

Now examine the next entry.
**Q:** Reported LC retention time, compound "COc1c(O)cc(-c2oc3cc(O)cc(O)c3c(=O)c2O[C@@H]2O[C@@H](C)[C@H](O)[C@@H](O)[C@H]2O)cc1O" : ____
**A:** 0.287

---

# LC retention time per record follows
Assay: RP, Waters ACQUITY UPLC BEH C18, 50 × 2.1 mm, 1.7 µm, 40 °C, 0.6 mL/min, estimated dead time 0.18 min; A: water + 0.1% formic acid, pH 3; B: acetonitrile + 0.1% formic acid, pH 3; gradient (min/%B) 0/5 7/100 8/100
Conditions: stereoisomer not certain
Number only, in min; omit the unit.

**Q:** Which LC retention time is reported for this molecule? CCC1CC2CC3(C(=O)OC)c4[nH]c5ccccc5c4CCN(C2OC)C13 (configuration not stated)
**A:** 1.77

**Q:** Same read-out for COC1=C(C)C(=O)O/C1=C1\OC2CCCN3C(C4CC(C)C(=O)O4)CCC3C2C1C (configuration not stated) ?
**A:** 1.55

---

Assay: RP, Waters ACQUITY UPLC BEH C18, 50 × 2.1 mm, 1.7 µm, 40 °C, 0.6 mL/min, estimated dead time 0.18 min; A: water + 0.1% formic acid, pH 3; B: acetonitrile + 0.1% formic acid, pH 3; gradient (min/%B) 0/5 7/100 8/100
Conditions: stereoisomer not certain
MEASURE: LC retention time (min)
The response must be a number in min with no trailing unit.

Guide cases for LC retention time, answers given:
COMPOUND	UNITS LABEL	QUANTITATIVE READOUT
CC/C=C/CC(O)C(O)/C=C/C(O)CCCCCCCC(=O)O (stereo unspecified) [(10E,15E)-9,12,13-trihydroxyoctadeca-10,15-dienoic acid]	min	2.6
CC(=O)OC(C)(C)CCC(=O)[C@](C)(O)C1[C@H](O)C[C@@]2(C)C3CC=C4C(C[C@H](O)[C@@H](O)C4(C)C)[C@]3(C)C(=O)C[C@]12C (stereo partly specified)	min	3.06
CC(O)c1cncc2c(=O)n3c(cc12)-c1[nH]c2ccccc2c1CC3 (stereo unspecified)	min	3.25

**Q:** Using the record for CC[C@H]1NC2C[C@@]3(C(=O)N(OC)c4cc(OC)ccc43)C3CC1C2CO3 (stereo partly specified) , report its LC retention time.
**A:** 1.95

**Q:** Then COc1cc2c(cc1OC)Oc1c(O)ccc3c1C(C2)N(C)CC3 (stereo unspecified) ?
**A:** 1.37

**Q:** Try the compound CCCCCCCCCCCCCC(=O)OC12CC(C)C3(O)C(C4OC4(CO)C(O)C4(O)C(=O)C(C)=CC43)C1C2(C)C (stereo unspecified)
**A:** 6.55

---

Assay: RP, Waters ACQUITY UPLC BEH C18, 50 × 2.1 mm, 1.7 µm, 40 °C, 0.6 mL/min, estimated dead time 0.18 min; A: water + 0.1% formic acid, pH 3; B: acetonitrile + 0.1% formic acid, pH 3; gradient (min/%B) 0/5 7/100 8/100
Settings: stereoisomer not certain
MEASURE: LC retention time (min)
Quick note: give the figure in min, leave out the unit.

COMPOUND	MEASURE	UNITS LABEL	QUANTITATIVE READOUT
C=C(C)[C@@]12OC3(/C=C/C=C\CCCCC)O[C@@H]1C1[C@@H]4O[C@]4(CO)[C@@H](O)[C@]4(O)C(=O)C(C)=CC4[C@@]1(O3)[C@H](C)[C@H]2OC(=O)c1ccccc1 (some centres not stated)	LC retention time	min	5.88
COc1cc(-c2oc3cc(OC)c(OC)c(O)c3c(=O)c2OC)ccc1O	LC retention time	min	2.66
CC[C@@H]1CN(C)C[C@@]2(C(=O)OC)Cc3c([nH]c4ccccc34)C(=O)C[C@@H]12	LC retention time	min	1.76

**Q:** Which LC retention time value belongs to "COc1ccc(C(=O)[C@@H](c2coc3cc(O)ccc3c2=O)C(c2ccc(O)cc2)c2ccc(O)cc2)c(O)c1" ?
**A:** 3.14

**Q:** And what about the compound COc1ccc2c3c(c4cc(OC)c(OC)cc4c2c1)CC1CCCN1C3 (configuration not stated) ?
**A:** 2.27

**Q:** Another compound: C=C(C)C(CCC(C)(C)O)Cc1c(O)cc(O)c2c1OC(c1ccc(O)cc1O)CC2=O (configuration not stated)
**A:** 2.97

**Q:** Now the same for CC(C)=CCC1CC23CC(CC=C(C)C)C(C)(C)C(CC=C(C)C)(C(=O)C(C(=O)c4ccc(O)c(O)c4)=C2OC1(C)C)C3=O (configuration not stated)
**A:** 5.93

---

Assay: RP, Waters ACQUITY UPLC BEH C18, 50 × 2.1 mm, 1.7 µm, 40 °C, 0.6 mL/min, estimated dead time 0.18 min; A: water + 0.1% formic acid, pH 3; B: acetonitrile + 0.1% formic acid, pH 3; gradient (min/%B) 0/5 7/100 8/100
Conditions: stereoisomer not certain
List of LC retention time values.
Give the value in min but do not write min after it.

Examples with their reported LC retention time follow.
COMPOUND	UNITS LABEL	LC retention time
CC(C)C1CCC2(C)C3CCC45CCCC4C2(CCC(=O)C2(C)COC4(C)CCC2O4)C1N5C3 (configuration not stated)	min	2.86
C=C1[C@@H](O)C[C@H]2C(C)(C)C[C@H](O)C[C@]2(C)[C@H]1CC1C(C)=CCC2C(=O)C(OC)=CC(=O)C21c1cc(=O)c2c(O)cc(O)cc2o1 (some centres not stated)	min	0.702
COc1c(CC=C(C)C)c(O)c(CC=C(C)C)c(O)c1C(=O)c1ccc(O)cc1	min	4.77
Cn1c(Cc2ccccc2)nc(=O)c2ccccc21 [2-benzyl-1-methyl-1,4-dihydroquinazolin-4-one]	min	1.8

**Q:** Consider the compound CC(=O)OC(C)(C)/C=C/C(=O)[C@](C)(O)[C@H]1[C@H](O)C[C@@]2(C)C3CC=C4C(C[C@H](OC5OC(CO)C(O)C(O)C5O)C(=O)C4(C)C)[C@]3(C)C(=O)C[C@]12C (some centres not stated) and give its measured LC retention time.
**A:** 2.74

**Q:** Also check "COC(=O)[C@@]12C[C@@H]3C[C@H]([C@H](C)O)C1N(CCc1c2[nH]c2ccccc12)C3"
**A:** 1.91

**Q:** Again, but for CC(=O)OC(CCc1ccccc1)Cc1cc(=O)c2c(o1)OC1(C)CCC(C(C)C)C2C1 (configuration not stated)
**A:** 4.97

**Q:** Same for COc1c(O)c(OC)c(C(=O)C2CC=C(CCC=C(C)C)CC2c2ccccc2)c(O)c1OC (configuration not stated)
**A:** 5.76

**Q:** Next compound up: CC1CC2CC(=O)C3CCCN4CCCC2C34C1 (configuration not stated)
**A:** 1.06
